Tested on: WPMY1-GM130-SQSTM1
measurement protocol: phenotypically active (imaging signature differs from DMSO and reproducible) at any of 0.3-9 uM (binary (1 = active, 0 = inactive)); higher = active
details: treatment time: 24 h
Classes used: 1.0 (active), 0.0 (inactive)

{"compound": "NC(=O)c1ncn([C@@H]2O[C@H](CO)[C@@H](O)[C@H]2O)c1N", "experimental system": "WPMY1-GM130-SQSTM1", "class name": 0.0}
{"compound": "CC(C)NCCCn1c(Sc2cc3c(cc2I)OCO3)nc2c(N)ncnc21", "experimental system": "WPMY1-GM130-SQSTM1", "class name": 1.0}
{"compound": "N#Cc1c(O)c2c(-c3ccc(-c4ccccc4O)cc3)csc2[nH]c1=O", "experimental system": "WPMY1-GM130-SQSTM1", "class name": 0.0}
{"compound": "O=C(/C=C/N1C[C@H]2C[C@@H]1CN2c1ccccn1)c1ccccc1O", "experimental system": "WPMY1-GM130-SQSTM1", "class name": 0.0}
{"compound": "CCC(CC)(NC(=O)C(C)C)C(=O)N[C@@H](CCCNC(=N)N)C(=O)NC1(C(=O)NC(c2ccc(F)cc2)c2ccc(F)cc2)CCCC1", "experimental system": "WPMY1-GM130-SQSTM1", "class name": 0.0}
{"compound": "COc1ccc(C[C@@H]2c3cc(OC)c(OC)cc3CC[N@+]2(C)CCC(=O)OCCCCCOC(=O)CC[N@@+]2(C)CCc3cc(OC)c(OC)cc3[C@H]2Cc2ccc(OC)c(OC)c2)cc1OC [Cisatracurium besylate]", "experimental system": "WPMY1-GM130-SQSTM1", "class name": 1.0}
{"compound": "Clc1ccc2nsnc2c1NC1=NCCN1", "experimental system": "WPMY1-GM130-SQSTM1", "class name": 0.0}
{"compound": "NC(=O)N1c2ccccc2C=Cc2ccccc21 [carbamazepine]", "experimental system": "WPMY1-GM130-SQSTM1", "class name": 0.0}
{"compound": "O=c1cc(-c2ccccc2)oc2cc(O)cc(O)c12", "experimental system": "WPMY1-GM130-SQSTM1", "class name": 0.0}

====

# reported phenotypically active; entries follow
System: A549-TUBA1B-RELA
measurement protocol: phenotypically active (imaging signature differs from DMSO and reproducible) at any of 0.3-9 uM (binary (1 = active, 0 = inactive)); higher = active
details: treatment time: 24 h
Counter-ions that a name gives are not always drawn.

{"molecule": "Nc1cc(N)c(N)cc1N", "phenotypically active": 1}
{"molecule": "NCCC(=O)NCCc1c[nH]cn1", "phenotypically active": 0}
{"molecule": "COC(=O)c1c(-c2cc(OC)c(OC)c(OC)c2)c2ccnc(OCc3ncccn3)c2c(=O)n1Cc1ccnc(C)c1 [T 0156 hydrochloride]", "phenotypically active": 0}
{"molecule": "CN1C(=O)CC(C)(c2ccccc2)C1=O (stereo unspecified) [methsuximide]", "phenotypically active": 0}
{"molecule": "C[C@]12CC[C@@H]3c4ccc(O)cc4CC[C@H]3[C@@H]1CCC2=O", "phenotypically active": 0}
{"molecule": "CCN(CC)CCNC(=O)c1cc(Cl)c(N)cc1OC [metoclopramide]", "phenotypically active": 0}
{"molecule": "S=c1[nH]cnc2nc[nH]c12", "phenotypically active": 0}
{"molecule": "Cc1ccc(NC(=O)CCCCCC(=O)Nc2ccccc2N)cc1", "phenotypically active": 1}
{"molecule": "O=C(CCCCCCC(=O)Nc1ccc([C@H]2O[C@@H](CSc3nc(-c4ccccc4)c(-c4ccccc4)o3)C[C@@H](c3ccc(CO)cc3)O2)cc1)NO", "phenotypically active": 0}
{"molecule": "Cn1cc(-c2ccc3nnc(Sc4ccc5ncccc5c4)n3n2)cn1", "phenotypically active": 0}
{"molecule": "CCN1C(=O)NC(c2ccccc2)C1=O (stereo unspecified)", "phenotypically active": 0}
{"molecule": "O=[N+]([O-])c1cc([N+](=O)[O-])c(/C=C/c2ccc(Cl)c(Cl)c2)cc1/C=C/c1ccc(Cl)c(Cl)c1", "phenotypically active": 0}
{"molecule": "CCc1cccc2c3c([nH]c12)C(CC)(CC(=O)O)OCC3 (stereo unspecified)", "phenotypically active": 0}
{"molecule": "CC(C)c1ccc(CC(=O)N2CCC[C@@H](c3cccc(OC(C)(C)C(=O)O)c3)C2)cc1", "phenotypically active": 0}
{"molecule": "CC(=O)S[C@@H]1CC2=CC(=O)CC[C@]2(C)[C@H]2CC[C@@]3(C)[C@@H](CC[C@@]34CCC(=O)O4)[C@H]12", "phenotypically active": 0}
{"molecule": "C[C@]12CCC(=O)C=C1CC[C@@H]1[C@@H]2[C@@H](O)C[C@@]2(C)[C@H]1CC[C@]2(O)C(=O)CO [hydrocortisone]", "phenotypically active": 1}
{"molecule": "O=C([C@@H](Cc1cccc(C(F)(F)F)c1)NS(=O)(=O)c1cc(F)c2c(c1)CCNC2)N1CCCC1 [(R)-PFI 2 hydrochloride]", "phenotypically active": 1}
{"molecule": "CCCCN1CCCCC1C(=O)Nc1c(C)cccc1C (stereo unspecified)", "phenotypically active": 0}
{"molecule": "CCCCCN(C)CCC(O)(P(=O)(O)O)P(=O)(O)O [ibandronate]", "phenotypically active": 0}
{"molecule": "CC(C)(C)NC[C@H](O)c1ccc(O)c(CO)c1", "phenotypically active": 0}
{"molecule": "O=NN(CCCl)C(=O)NCCCl", "phenotypically active": 0}
{"molecule": "NC(=O)c1cccc(-c2cccc(OC(=O)NC3CCCCC3)c2)c1", "phenotypically active": 0}
{"molecule": "CC(=O)NCCCS(=O)(=O)O [acamprosate]", "phenotypically active": 0}
{"molecule": "Oc1cc(O)c2c(c1)O[C@H](c1ccc(O)c(O)c1)[C@@H](O)C2 [Epicatechin-(-)]", "phenotypically active": 0}
{"molecule": "Nc1nc(S)c2[nH]cnc2n1", "phenotypically active": 1}
{"molecule": "C[C@]1(OC(=O)/C=C/c2ccccc2)C[C@@H](O)[C@]2(O)C=CO[C@@H](O[C@@H]3O[C@H](CO)[C@@H](O)[C@H](O)[C@H]3O)[C@@H]21 [Harpagoside]", "phenotypically active": 0}
{"molecule": "Cc1ccc(O)c([C@H](CCN(C(C)C)C(C)C)c2ccccc2)c1 [Tolterodine L-tartrate]", "phenotypically active": 0}
{"molecule": "C[C@@H](CN1CCC(n2c(=O)[nH]c3cc(Cl)ccc32)CC1)NC(=O)c1ccc2ccccc2c1", "phenotypically active": 1}
{"molecule": "C=C[C@H]1CN2CC[C@H]1C[C@@H]2[C@@H](O)c1ccnc2ccc(OC)cc12 [Quinidine hydrochloride monohydrate]", "phenotypically active": 0}
{"molecule": "CC1=CC(=O)C2=C(C)CC[C@@H]3[C@H](OC(=O)[C@H]3C)[C@@H]12", "phenotypically active": 0}
{"molecule": "CCc1cc(-c2n[nH]c(C)c2-c2ccc3c(c2)OCCO3)c(O)cc1O", "phenotypically active": 1}
{"molecule": "CC(C)NCCCC1(C(N)=O)c2ccccc2-c2ccccc21 [indecainide]", "phenotypically active": 0}
{"molecule": "CCCCN1C[C@H](O)[C@@H](O)[C@H](O)[C@H]1CO [Miglustat hydrochloride]", "phenotypically active": 0}
{"molecule": "Cc1cccc(Nc2ccccc2C(=O)O)c1C", "phenotypically active": 0}
{"molecule": "C=C1CC[C@H](O)C/C1=C\\C=C1\\CCC[C@]2(C)[C@@H]([C@H](C)/C=C/[C@H](C)C(C)C)CC[C@@H]12", "phenotypically active": 0}
{"molecule": "COCc1nc2c([nH]1)c(=O)n(C)c(=O)n2CC(C)C", "phenotypically active": 0}
